- target-or-test-system: 14-3-3β/CFTRpS753pS768 complex (Homo sapiens, UniProt P13569+P31946)
- Construct: His6 (cleaved yes); made in house; peptide synthetic
- Sequence (P31946 whole entry): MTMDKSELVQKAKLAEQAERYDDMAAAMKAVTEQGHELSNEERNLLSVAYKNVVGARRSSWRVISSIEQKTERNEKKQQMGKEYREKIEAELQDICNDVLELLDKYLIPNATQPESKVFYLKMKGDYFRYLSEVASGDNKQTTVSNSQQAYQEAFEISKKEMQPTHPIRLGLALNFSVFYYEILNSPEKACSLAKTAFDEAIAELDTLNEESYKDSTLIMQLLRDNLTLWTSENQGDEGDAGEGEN
- Sequence (P13569 747-774 limits assumed): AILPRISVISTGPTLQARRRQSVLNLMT
- assay-method-text: Dose-response fluorescence polarization (FP) assay, compound titration
- Assay type: binding
- recorded-conditions: With 14-3-3; compound 3.8147e-9 M
I'd be grateful if you could share measured FP signal for these entries.
Write no unit; give the number alone.

Per the record, NCCCCC1NCc2ccccc2Sc2ccccc2CNC(=O)C(Cc2cccc(Cl)c2)NC(=O)C(Cc2ccc(O)cc2)NC1=O (stereo not shown) has FP signal of 4

Record N=C(N)NCCCC1NC(=O)C(CCCCN)NCc2ccccc2Sc2ccccc2CNC(=O)C(Cc2ccc(O)cc2)NC1=O (stereo not shown) . Reported FP signal: 4

get_value(item= N=C(N)NCCCC1NC(=O)C(CCC(N)=O)NC(=O)C(CCCNC(=N)N)NC(=O)C2CCCN2Cc2cccc(c2)-c2ccccc2CNC1=O (stereo not shown) [CY007458] , readout=FP signal) returns 5

Quick note, FP signal for N=C(N)NCCCC1NC(=O)C(CCC(N)=O)NC(=O)C(CCCNC(=N)N)NC(=O)C2CCCN2Cc2cccc(c2)-c2ccccc2CNC1=O (stereo not shown) [CY007455] landed at 4

Per the records, this compound ( NCCCC1NCc2ccccc2Sc2ccccc2CNC(=O)C(Cc2c[nH]c3ccccc23)NC(=O)C(Cc2ccccc2)NC1=O (stereo not shown) ) has FP signal equal to 7

Reported FP signal of N=C(N)NCCCC1NCc2ccccc2Sc2ccccc2CNC(=O)C(Cc2ccc(O)cc2)NC(=O)C(CCCN)NC1=O (stereo not shown) : 7

FP signal in this record for CC1NC(=O)C(CCCNC(=N)N)NC(=O)C2CCCN2Cc2cccc(c2)-c2ccccc2CNC(=O)C(CCCNC(=N)N)NC1=O (stereo not shown) : 5

###

- target-or-test-system: FITC-labeled CFTRpS753pS768 peptide (no 14-3-3) (Homo sapiens)
- Construct: made in house; host or cells: synthetic peptide
- assay-method-text: Dose-response FP control assay in the absence of 14-3-3
- Format: binding
- recorded-conditions: No 14-3-3; compound 3.05176e-8 M
Could you please report measured FP signal for the items listed next?
Hey, just send me the number, nothing else.

FP signal reading for N=C(N)NCCCC1NC(=O)C(CCC(N)=O)NC(=O)C(CCCNC(=N)N)NC(=O)C2CCCN2Cc2cccc(c2)-c2ccccc2CNC1=O (stereo not drawn) [CY007455] : 4

The recorded FP signal for NCCCC1NCc2ccccc2Sc2ccccc2CNC(=O)C(Cc2c[nH]c3ccccc23)NC(=O)C(Cc2ccccc2)NC1=O (stereo not drawn) is 4

The recorded FP signal for entry N=C(N)NCCCC1NC(=O)C(CCCCN)NCc2ccccc2Sc2ccccc2CNC(=O)C(Cc2ccc(O)cc2)NC1=O (stereo not drawn) equals 4

###

Provide the reported FP signal of each item.
- target-or-test-system: 14-3-3β/CFTRpS753pS768 complex (Homo sapiens, UniProt P13569+P31946)
- Construct: His6 (cleaved yes); made in house; peptide synthetic
- assay-method-text: Dose-response fluorescence polarization (FP) assay, compound titration
- Format: binding
- recorded-conditions: With 14-3-3; compound 0.0005 M
Format: numeric value only, no unit, no commentary.

The value of FP signal measured for the compound C=CC(C)(C)OC[C@H]1O[C@H](O[C@@H]2C3=C([C@H](C)COC(C)=O)C[C@H](O)[C@]3(C)/C=C3/[C@@H](COC)CC[C@H]3[C@@H](C)[C@H]2O)[C@H](O)[C@@H](OC(C)=O)[C@@H]1O [FC-A, fusicoccin A, reference compound] turned out to be 116

So, CC1NC(=O)C(CCCNC(=N)N)NC(=O)C2CCCN2Cc2cccc(c2)-c2ccccc2CNC(=O)C(CCCNC(=N)N)NC1=O (centres unmarked) [CY007476] ? Its FP signal was 230

Looking up NCCCC1NCc2ccccc2Sc2ccccc2CNC(=O)C(Cc2c[nH]c3ccccc23)NC(=O)C(Cc2ccccc2)NC1=O (centres unmarked) [CY007345] , I see its FP signal listed as 238

The reported value for N=C(N)NCCCC1NC(=O)C(CCC(N)=O)NC(=O)C(CCCNC(=N)N)NC(=O)C2CCCN2Cc2cccc(c2)-c2ccccc2CNC1=O (centres unmarked) [CY007458] in terms of FP signal is 221

For this compound ( NCCCCC1NCc2ccccc2Sc2ccccc2CNC(=O)C(Cc2cccc(Cl)c2)NC(=O)C(Cc2ccc(O)cc2)NC1=O (centres unmarked) [CY007288] ), measured FP signal is 194

Recorded result, N=C(N)NCCCC1NC(=O)C(CCCCN)NCc2ccccc2Sc2ccccc2CNC(=O)C(Cc2ccc(O)cc2)NC1=O (centres unmarked) [CY001951] , FP signal: 201

Query N=C(N)NCCCC1NCc2ccccc2Sc2ccccc2CNC(=O)C(Cc2ccc(O)cc2)NC(=O)C(CCCN)NC1=O (centres unmarked) [CY007424] yields FP signal of 257

The reported value for CN1CC(=O)NC(CCCNC(=N)N)C(=O)NC(CCC(N)=O)C(=O)NC(CCCNC(=N)N)C(=O)NCc2ccccc2-c2cccc(c2)C1 (centres unmarked) [CY007491] in terms of FP signal is 193

###

- target-or-test-system: 14-3-3β/CFTRpS753pS768 complex (Homo sapiens, UniProt P13569+P31946)
- Construct: His6 (cleaved yes); made in house; peptide synthetic
- assay-method-text: Dose-response fluorescence polarization (FP) assay, compound titration
- Format: binding
- recorded-conditions: With 14-3-3; compound 1.90735e-9 M
assay-endpoint: FP signal
Lab note: jot the number down without any unit.

In plain terms, NCCCC1NCc2ccccc2Sc2ccccc2CNC(=O)C(Cc2c[nH]c3ccccc23)NC(=O)C(Cc2ccccc2)NC1=O (stereo not drawn) has a documented FP signal of 4

So for N=C(N)NCCCC1NC(=O)C(CCC(N)=O)NC(=O)C(CCCNC(=N)N)NC(=O)C2CCCN2Cc2cccc(c2)-c2ccccc2CNC1=O (stereo not drawn) [CY007458] , the logged FP signal turned out to be 4

Query N=C(N)NCCCC1NC(=O)C(CCCCN)NCc2ccccc2Sc2ccccc2CNC(=O)C(Cc2ccc(O)cc2)NC1=O (stereo not drawn) yields FP signal of 4

// provenance: paper PMC9226124
